# TESTED SYSTEM: bdSUMO Mut14-MBP fusion protein
In this section, each of the proteins is paired with its reported cleavage of the SUMO fusion protein.

Below are worked cases with known answers.
-- ask Hello, please tell me recorded cleavage of the SUMO fusion protein for this one: bdSENP1 from B. distachyon (protein) PFVPLTDEDEDNVRHALGGRKRSETLSVHEASNIVITREILQCLNDKEWLNDEVINLYLELLKERELREPNKFLKCHFFNTFFYKKLINGGYDYKSVRRWTTKRKLGYNLIDCDKIFVPIHKDVHWCLAVINIKEKKFQYLDSLGYMDMKALRILAKYLVDEVKDKSGKQIDVHAWKQEGVQNLPLQENGWDCGMFMLKYIDFYSRDMELVFGQKHMSYFRRRTAKEILDLKAG
-- reply < 25 % cleavage

-- ask Dear colleague, please send me the reported cleavage of the SUMO fusion protein for bdSENP1^Muti (protein) PFVPLTDEDEDNVRHALGGRKKSETLSVHEASHIVITREILQCLNDKEWLNDEVINLYLELLKERELREPNKFLKCHFFNTFFYKKLINGGYDYKSVREWTTRRKLGYNLIDCDKIFVPIHKDVHWCLAVINIKEKKFQYLDSLGYMDMKALRILAKYLVDEVKDKSGKQIDVHAWKQEGVQNLPLQENGWDCGMFMLKYIDFYSRDMELVFGQKHMSYFRRRTAKEILDLKAG when you can.
-- reply < 50 % cleavage

-- ask Quickly give me recorded cleavage of the SUMO fusion protein for bdSENP1^MutG (protein) PFVPLTDEDEDNVRHALGGRKSSETLSVHEASHIVITREILQCLNDKEWLNDEVINLYLELLKERELREPNKFLKCHFFNTFFYKKLINGGYDYKSVRRWTTVKLGYNLIDCDKIFVPIHKDVHWCLAVINIKEKKFQYLDSLGYMDMKALRILAKYLVDEVKDKSGKQIDVHAWKQEGVQNLPLQENGWDCGMFMLKYIDFYSRDMELVFGQKHMSYFRRRTAKEILDLKAG
-- reply < 50 % cleavage

Proceed to the following item.
-- ask Give recorded cleavage of the SUMO fusion protein. bdSENP1^MutK (protein) PFVPLTDEDEDNVRHALGGRKVSETLSVHEASQIVITREILQCLNDKEWLNDEVINLYLELLKERELREPNKFLKCHFFNTFFYKKLINGGYDYKSVRVWTTGRKLGYNLIDCDKIFVPIHKDVHWCLAVINIKEKKFQYLDSLGYMDMKALRILAKYLVDEVKDKSGKQIDVHAWKQEGVQNLPLQENGWDCGMFMLKYIDFYSRDMELVFGQKHMSYFRRRTAKEILDLKAG
-- reply 100 % cleavage
